- TARGET_OR_SYSTEM: Alpha-1A adrenergic receptor (Rattus norvegicus)
- Sequence (P43140 whole entry): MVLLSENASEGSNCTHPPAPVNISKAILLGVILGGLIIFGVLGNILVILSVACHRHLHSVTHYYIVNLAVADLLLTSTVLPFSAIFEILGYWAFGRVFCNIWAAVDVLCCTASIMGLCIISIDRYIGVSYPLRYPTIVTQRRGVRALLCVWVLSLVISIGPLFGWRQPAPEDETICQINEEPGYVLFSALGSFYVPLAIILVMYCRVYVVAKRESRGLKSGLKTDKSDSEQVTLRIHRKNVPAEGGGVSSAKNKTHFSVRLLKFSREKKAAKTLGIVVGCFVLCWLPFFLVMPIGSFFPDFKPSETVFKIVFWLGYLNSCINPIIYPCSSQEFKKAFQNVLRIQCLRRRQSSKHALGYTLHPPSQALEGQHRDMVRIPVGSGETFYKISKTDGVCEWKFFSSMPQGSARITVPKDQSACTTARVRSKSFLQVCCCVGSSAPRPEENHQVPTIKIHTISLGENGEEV
ASSAY_READOUT: pKi
Numbers only, as −log10 of the molar value.

What measured pKi goes with c1ccc2c(c1)OCC(C1=NCCN1)O2 (stereo unspecified) ?
7.04
